This collection of values is drawn from patent US20220380459A1.

Listed here are binders together with their documented log10 of kon.
# study system: T1, V domain of human CD33 (human, UniProt P20138 18-139, limits assumed)
# T1 construct: recombinant, fully glycosylated V domain; also called Human CD33 V domain
# assay details: SPR, Fab captured, 37C;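 also: Anti-CD33 Fabs captured on anti-Fab chip, soluble monomeric CD33 or its domains flowed over at several concentrations, double-referenced data fitted 1:1, Kd taken as koff/kon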
Log10 applied to kon; unit prior to transform: M⁻¹ s⁻¹.

Q) Suppose we examine the binder ADI-10161 Fab (Fab, V domains shown, Fab fragment; also called Ab16) VH: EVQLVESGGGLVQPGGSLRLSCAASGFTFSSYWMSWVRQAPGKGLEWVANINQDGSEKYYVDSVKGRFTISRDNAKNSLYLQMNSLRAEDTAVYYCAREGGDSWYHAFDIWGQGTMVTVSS VL: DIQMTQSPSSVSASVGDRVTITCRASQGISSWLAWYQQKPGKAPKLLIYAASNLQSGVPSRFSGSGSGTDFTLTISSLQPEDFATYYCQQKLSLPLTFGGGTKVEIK ; what log10 of kon value has been reported?
A) 6.11

Q) What about ADI-10157 Fab (Fab, V domains shown, Fab fragment; also called Ab13) VH: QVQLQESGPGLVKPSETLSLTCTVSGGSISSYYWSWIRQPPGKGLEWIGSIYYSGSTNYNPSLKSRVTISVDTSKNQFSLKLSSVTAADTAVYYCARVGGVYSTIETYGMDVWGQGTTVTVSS VL: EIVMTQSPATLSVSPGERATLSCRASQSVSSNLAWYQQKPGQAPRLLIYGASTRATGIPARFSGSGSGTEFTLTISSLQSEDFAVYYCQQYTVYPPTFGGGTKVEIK ?
A) 5.05

Q) What about ADI-11828 Fab (Fab, V domains shown, Fab fragment; also called Ab27) VH: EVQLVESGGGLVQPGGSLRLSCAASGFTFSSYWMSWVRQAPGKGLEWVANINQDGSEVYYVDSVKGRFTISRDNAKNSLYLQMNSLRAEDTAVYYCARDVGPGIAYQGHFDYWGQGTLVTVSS VL: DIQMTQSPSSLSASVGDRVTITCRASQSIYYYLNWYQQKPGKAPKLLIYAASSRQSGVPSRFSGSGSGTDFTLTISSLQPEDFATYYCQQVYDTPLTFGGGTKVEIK ?
A) 6.53

Q) What about ADI-10159 Fab (Fab, V domains shown, Fab fragment; also called Ab1; G59) VH: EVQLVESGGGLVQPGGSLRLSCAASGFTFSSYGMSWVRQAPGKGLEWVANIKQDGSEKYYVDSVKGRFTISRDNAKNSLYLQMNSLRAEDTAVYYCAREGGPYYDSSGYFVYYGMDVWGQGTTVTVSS VL: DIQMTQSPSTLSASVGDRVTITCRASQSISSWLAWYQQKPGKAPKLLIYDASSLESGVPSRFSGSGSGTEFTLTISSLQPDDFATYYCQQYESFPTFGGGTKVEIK ?
A) 5.96

Q) What about ADI-11839 Fab (Fab, V domains shown, Fab fragment; also called Ab28) VH: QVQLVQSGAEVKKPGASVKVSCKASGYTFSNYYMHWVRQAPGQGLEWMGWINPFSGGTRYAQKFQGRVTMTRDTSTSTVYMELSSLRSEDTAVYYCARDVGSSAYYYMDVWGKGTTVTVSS VL: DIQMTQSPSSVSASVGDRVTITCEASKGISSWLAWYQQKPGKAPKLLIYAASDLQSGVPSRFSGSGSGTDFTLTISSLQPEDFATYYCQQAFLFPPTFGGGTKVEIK ?
A) 6.96
